Reported Injury of Paddy values for the following compounds.
- Tested on: paddy rice
- procedure-text: Experiment 4 flooded soil treatment: injury to paddy rice
- Type: in vivo
- Design: key: 5: completely killed; 4: seriously injured; 3: considerably injured; 2: somewhat injured; 1: slightly injured; 0: not injured (normally grown)
- condition-info: 6.25 g/10a, 4 weeks after treatment
readout: Injury of Paddy

compound: CCCCOC(=O)c1cc(N(C(=O)C2=C(C(=O)OC)CCCC2)C(=O)c2cccnc2)c(F)cc1Cl [compound 66]
system-under-test: paddy rice
numeric-value: 0

compound: COC(=O)C1=C(C(=O)N(C(=O)c2cccnc2)c2cc(OC(C)C)c(Cl)cc2F)CCCC1 [compound 56]
system-under-test: paddy rice
numeric-value: 0.5

compound: C#CC(C)Oc1cc(N(C(=O)C2=C(C(=O)OC3CCCC3)CCCC2)C(=O)c2cccnc2)c(F)cc1Cl (stereo not drawn) [compound 62]
system-under-test: paddy rice
numeric-value: 0.5

compound: C#CC(C)Oc1cc(N(C(=O)C2=C(C(=O)OCCOC)CCCC2)C(=O)c2cccnc2)c(Cl)cc1Cl (stereo not drawn) [compound 71]
system-under-test: paddy rice
numeric-value: 0

compound: C#CC(C)Oc1cc(N(C(=O)C2=C(C(=O)OCCCC)CCCC2)C(=O)c2cccnc2)c(F)cc1Cl (stereo not drawn) [compound 59]
system-under-test: paddy rice
numeric-value: 0.5

compound: C#CC(C)Oc1cc(N(C(=O)C2=C(C(=O)OCCOC)CCCC2)C(=O)c2ccc(Cl)nc2)c(F)cc1Cl (stereo not drawn) [compound 69]
system-under-test: paddy rice
numeric-value: 0.5

compound: C#CC(C)Oc1cc(N(C(=O)C2=C(C(=O)OC)CCCC2)C(=O)c2cccnc2)c(Cl)cc1Cl (stereo not drawn) [compound 70]
system-under-test: paddy rice
numeric-value: 0

compound: C#CCOC(=O)C1=C(C(=O)N(C(=O)c2cccnc2)c2cc(OC(C)C#C)c(Cl)cc2F)CCCC1 (stereo not drawn) [compound 61]
system-under-test: paddy rice
numeric-value: 0.5

compound: COC(=O)C1=C(C(=O)N(C(=O)c2cccnc2)c2cc(C(=O)OC)c(Cl)cc2F)CCCC1 [compound 64]
system-under-test: paddy rice
numeric-value: 0.5

compound: C#CC(C)Oc1cc(N(C(=O)C2=C(C(=O)OCCC)CCCC2)C(=O)c2cccnc2)c(F)cc1Cl (stereo not drawn) [Compound No. 58]
system-under-test: paddy rice
numeric-value: 0.5

compound: C#CC(C)Oc1cc(N(C(=O)C2=C(C(=O)OC(C)C)CCCC2)C(=O)c2ccc(Cl)nc2)c(F)cc1Cl (stereo not drawn) [compound 68]
system-under-test: paddy rice
numeric-value: 0.5

compound: C#CC(C)Oc1cc(N(C(=O)C2=C(C(=O)OCCOCC)CCCC2)C(=O)c2cccnc2)c(F)cc1Cl (stereo not drawn) [compound 60]
system-under-test: paddy rice
numeric-value: 0.5

compound: COC(=O)CSc1cc(N(C(=O)C2=C(C(=O)OC)CCCC2)C(=O)c2cccnc2)c(F)cc1Cl [compound 63]
system-under-test: paddy rice
numeric-value: 0

compound: C#CC(C)Oc1cc(N(C(=O)C2=C(C(=O)OC)CCCC2)C(=O)c2cncc(C(=O)OC)c2)c(F)cc1Cl (stereo not drawn) [compound 67]
system-under-test: paddy rice
numeric-value: 0.5

compound: COCCOC(=O)C1=C(C(=O)N(C(=O)c2cccnc2)c2cc(C(=O)OC)c(Cl)cc2F)CCCC1 [compound 65]
system-under-test: paddy rice
numeric-value: 0
